Data origin: ChEMBL document CHEMBL5033995

# procedure_text: Volume of distribution at steady state in rat at 2 mg/kg, iv by LC-MS/MS analysis
# Assay type: ADME, organism-based
# recorded_conditions: in vivo, read-out: Vdss
experimental_endpoint: Vd (L/kg)

[[record]]
compound = "NC1=N[C@@]2(c3cc(NC(=O)c4ccc(F)cn4)ccc3F)CN(c3ncc(F)cn3)C[C@H]2CS1 (relative stereo)"
result_units = "L/kg"
value = 2.5

[[record]]
compound = "Cl.NC1=N[C@@]2(c3ccns3)CN(c3ncc(F)cn3)C[C@H]2CS1"
result_units = "L/kg"
value = 2.87

[[record]]
compound = "NC1=N[C@@]2(c3cc(NC(=O)c4ccc(F)cn4)ccc3F)COC[C@H]2CS1"
result_units = "L/kg"
value = 10.4

[[record]]
compound = "NC1=N[C@@]2(c3cc(NC(=O)c4ncc(F)cc4F)ccc3F)CN(c3ncc(F)cn3)C[C@H]2CS1"
result_units = "L/kg"
value = 2.2

[[record]]
compound = "COc1cnc(C(=O)Nc2ccc(F)c([C@]34CN(c5ncc(F)cn5)C[C@H]3CSC(N)=N4)c2)cn1"
result_units = "L/kg"
value = 5.2


* * *

# procedure_text: Bioavailability in rat
# Assay type: ADME, organism-based
# recorded_conditions: in vivo
Each entry below carries its reported bioavailability.
experimental_endpoint: bioavailability

[[record]]
compound = "NC1=N[C@@]2(c3cc(NC(=O)c4ccc(F)cn4)ccc3F)COC[C@H]2CS1 [LY-2886721]"
value = "30%"

[[record]]
compound = "COc1cnc(C(=O)Nc2ccc(F)c([C@]34CN(c5ncc(F)cn5)C[C@H]3CSC(N)=N4)c2)cn1"
value = "47%"

[[record]]
compound = "NC1=N[C@@]2(c3cc(NC(=O)c4ncc(F)cc4F)ccc3F)CN(c3ncc(F)cn3)C[C@H]2CS1"
value = "55%"

[[record]]
compound = "NC1=N[C@@]2(c3cc(NC(=O)c4ccc(F)cn4)ccc3F)CN(c3ncc(F)cn3)C[C@H]2CS1 (relative stereo)"
value = "72%"


* * *

Each entry below carries its reported remaining at 0.5 h, 2 µM.
# procedure_text: Stability in mouse liver microsomes at 2 uM measured upto 30 mins in presence of NADPH by LC-MS/MS analysis
# Type: ADME, Microsome
# recorded_conditions: read-out: Stability
experimental_endpoint: remaining at 0.5 h, 2 µM

[[record]]
compound = "C[C@@H]1C[C@H]1CNC(=O)[C@@H]1C[C@H]1[C@]12COC[C@H]1CSC(N)=N2"
value = "23%"

[[record]]
compound = "NC1=N[C@@]2(c3cc(NC(=O)c4ccc(F)cn4)ccc3F)CN(c3ncc(F)cn3)C[C@H]2CS1 (relative stereo)"
value = "25%"

[[record]]
compound = "C[C@@H]1C[C@H]1COC(C)(C)[C@@H]1C[C@H]1[C@]12CN(c3ncccn3)C[C@H]1CSC(N)=N2"
value = "98%"

[[record]]
compound = "COc1cnc(C(=O)Nc2ccc(F)c([C@]34CN(c5ncc(F)cn5)C[C@H]3CSC(N)=N4)c2)cn1"
value = "27%"

[[record]]
compound = "NC1=N[C@@]2(c3cc(NC(=O)c4ncc(F)cc4F)ccc3F)CN(c3ncc(F)cn3)C[C@H]2CS1"
value = "22%"

[[record]]
compound = "C[C@@H]1C[C@H]1CNC(=O)[C@@H]1C[C@H]1[C@]12CN(c3ncccn3)C[C@H]1CSC(N)=N2"
value = "33%"

[[record]]
compound = "NC1=N[C@@]2(c3cc(NC(=O)c4ccc(F)cn4)ccc3F)COC[C@H]2CS1 [LY-2886721]"
value = "33%"

